- Measured On: GABA-A receptor; anion channel (Mus musculus) (UniProt Q8BHJ7+P26048+Q8QZW7+P50571+Q9R0Y8+P22723+A2AMW3+P62812+Q9JLF1+P26049+P22933+Q9D6F4+P63080+P27681+P16305)
- Assay Remarks: Ex vivo inhibition of [3H]flunitrazepam binding to mouse GABA-A benzodiazepine receptor
- Assay type: functional
Test Readout: ED50

compound=Cc1nnc(CNC(=O)CN)n1-c1ccc(Cl)cc1C(=O)c1ccccc1 result="9 µmol/kg"
compound=Cc1nnc2n1-c1ccc(Cl)cc1C(c1ccccc1)=NC2 result="2.9 µmol/kg"
compound=Cc1nnc(CNC(=O)CCCN)n1-c1ccc(Cl)cc1C(=O)c1ccccc1 result="320 µmol/kg"
compound="Cc1nnc(CNC(=O)C(N)CC(C)C)n1-c1ccc(Cl)cc1C(=O)c1ccccc1 (centres undefined)" result="6 µmol/kg"

###

- Assay Remarks: Half-life period at 37 degrees C
- Type: ADME
Test Readout: half-life

molecule="Cc1nnc(CNC(=O)C(N)CC(C)C)n1-c1ccc(Cl)cc1C(=O)c1ccccc1 (configuration not stated)" test_readout=half-life result="1 h"
molecule=Cc1nnc(CNC(=O)CN)n1-c1ccc(Cl)cc1C(=O)c1ccccc1 test_readout=half-life result="4.33 h"
